- PROCEDURE_SUMMARY: Selectivity ratio of IC50 for ribosome-mediated protein synthesis in rabbit reticulocytes to IC50 for ribosome S30 subunit-mediated protein synthesis in Escherichia coli
Some compounds, each annotated with its measured Ratio IC50.
ASSAY_METRIC: Ratio IC50

[
  {
    "COMPOUND_STRUCTURE": "C[C@@H](N)[C@H]1O[C@@H](O[C@@H]2[C@@H](O)[C@H](NC(=O)[C@@H](O)CCN)C[C@H](N)[C@H]2O[C@H]2O[C@H]([C@@H](C)O)[C@@H](O)[C@H](O)[C@H]2N)[C@H](O)[C@@H]1O",
    "MEASURED_RESULT": 0.5
  },
  {
    "COMPOUND_STRUCTURE": "C[C@H](N)[C@H]1O[C@@H](O[C@@H]2[C@@H](O)[C@H](NC(=O)[C@@H](O)CCN)C[C@H](N)[C@H]2O[C@H]2O[C@H]([C@@H](C)O)[C@@H](O)[C@H](O)[C@H]2N)[C@H](O)[C@@H]1O",
    "MEASURED_RESULT": 0.4
  },
  {
    "COMPOUND_STRUCTURE": "C[C@H](N)[C@H]1O[C@@H](O[C@@H]2[C@@H](O)[C@H](N)C[C@H](N)[C@H]2O[C@H]2O[C@H](CO)[C@@H](O)[C@H](O)[C@H]2N)[C@H](O)[C@@H]1O",
    "MEASURED_RESULT": 7.9
  },
  {
    "COMPOUND_STRUCTURE": "C[C@H](N)[C@H]1O[C@@H](O[C@@H]2[C@@H](O)[C@H](NC(=O)[C@@H](O)CCN)C[C@H](N)[C@H]2O[C@H]2O[C@H](CO)[C@@H](O)[C@H](O)[C@H]2N)[C@H](O)[C@@H]1O",
    "MEASURED_RESULT": 2.3
  }
]

---

- Test system: HEK293
- PROCEDURE_SUMMARY: Cytotoxicity against human HEK293 cells assessed as cell viability after 48 hrs by XTT based calorimetric assay
- EXPERIMENTAL_PARAMETERS: hek293, 48 h, read-out: LC50 (the source's name)
ASSAY_METRIC: CC50 (µM)

[
  {
    "SEQUENCE_CONTENT": "GENTAMICIN SULFATE",
    "MEASURED_RESULT": 2500
  }
]

---

- Test system: Escherichia coli
- PROCEDURE_SUMMARY: Antibacterial activity against Escherichia coli R477/100 by microdilution method
- Format: functional
Counter-ions that a name gives are not always drawn.
Recorded MIC, one value per entry.

[
  {
    "MOLECULE": "NC[C@@H]1O[C@H](O[C@H]2[C@@H](O)[C@H](O[C@@H]3[C@@H](O)[C@H](N)C[C@H](N)[C@H]3O[C@H]3O[C@H](CO)[C@@H](O)[C@H](O)[C@H]3N)O[C@@H]2CO)[C@H](N)[C@@H](O)[C@@H]1O [PAROMOMYCIN SULFATE]",
    "SYSTEM_NAME": "Escherichia coli",
    "UNIT_DESCRIPTOR": "µM",
    "MIC": 22
  },
  {
    "MOLECULE": "C[C@H](N)[C@H]1O[C@@H](O[C@@H]2[C@@H](O)[C@H](N)C[C@H](N)[C@H]2O[C@H]2O[C@H]([C@@H](C)O)[C@@H](O)[C@H](O)[C@H]2N)[C@H](O)[C@@H]1O",
    "SYSTEM_NAME": "Escherichia coli",
    "UNIT_DESCRIPTOR": "µM",
    "MIC": 768
  },
  {
    "MOLECULE": "C[C@H](N)[C@H]1O[C@@H](O[C@@H]2[C@@H](O)[C@H](NC(=O)[C@@H](O)CCN)C[C@H](N)[C@H]2O[C@H]2O[C@H]([C@@H](C)O)[C@@H](O)[C@H](O)[C@H]2N)[C@H](O)[C@@H]1O",
    "SYSTEM_NAME": "Escherichia coli",
    "UNIT_DESCRIPTOR": "µM",
    "MIC": 384
  },
  {
    "MOLECULE": "C[C@H](N)[C@H]1O[C@@H](O[C@@H]2[C@@H](O)[C@H](N)C[C@H](N)[C@H]2O[C@H]2O[C@H](CO)[C@@H](O)[C@H](O)[C@H]2N)[C@H](O)[C@@H]1O",
    "SYSTEM_NAME": "Escherichia coli",
    "UNIT_DESCRIPTOR": "µM",
    "MIC": 2660
  },
  {
    "MOLECULE": "C[C@@H](O)[C@H]1O[C@H](O[C@H]2[C@H](O[C@@H]3O[C@H](CN)[C@@H](O)[C@H]3O)[C@@H](O)[C@H](NC(=O)[C@@H](O)CCN)C[C@@H]2N)[C@H](N)[C@@H](O)[C@@H]1O",
    "SYSTEM_NAME": "Escherichia coli",
    "UNIT_DESCRIPTOR": "µM",
    "MIC": 556
  }
]
